Data origin, for the record: PubChem BioAssay (NCATS)

# MEASUREMENT PROTOCOL: qHTS of pediatric cancer cell lines to identify multiple opportunities for drug repurposing: Primary screen for NB-EBc1 cells (AID 1347095)
# MEASUREMENT CONDITIONS: NB-EBc1 neuroblastoma viability, CellTiter-Glo luminescence, 48 h; series mostly up to 46 µM
Inconclusive results are not listed. The source made the active and inactive calls. Calls come from the whole dose curve; as a rule, active = well fitted cell-killing curve with a large enough effect; inconclusive = small, poorly fitted or top-dose-only effect; inactive = no such curve, though single readings can be large or run the other way.
Assign a class; possible classes are YES = active, NO = inactive

In: Dear all, I need the recorded test outcome for COc1cccc2c(NCc3ccccc3)nc(-n3c(N)nc4ccccc43)nc12 , thank you.
Out: YES

In: Short answer needed: outcome of this test for Nc1ncnc2c1c(-c1cccc(OCc3ccccc3)c1)cn2C1CC(CN2CCCC2)C1 (stereo not given) ?
Out: YES

In: Query: recorded result category for CCCCCN(CCC12CC3CC(CC(C3)C1)C2)C(=O)NCCCc1ccncc1 in this test
Out: YES

In: For CC(C)[C@H](C(=O)Nc1ccc(C(=O)NO)cc1)c1ccccc1 , which call appears in the assay record?
Out: YES

In: Test call, this molecule: CN(C)CCCN=c1c2ccccc2n(C)c2[nH]c(=O)n(C)c(=O)c12
Out: YES

In: Each molecule tested received a call. Report the one for COc1ccc2c(OCc3nnc4ccc(-c5ccccc5)nn34)ccnc2c1 .
Out: NO

In: For this molecule, state the assay outcome: CC(=O)c1c(C)c2cnc(Nc3ccc(N4CCNCC4)cn3)nc2n(C2CCCC2)c1=O
Out: YES

In: Record lookup: outcome of this test for Cc1cc(Nc2cc(N3CCN(C)CC3)nc(C=Cc3ccccc3)n2)n[nH]1 ?
Out: YES

In: What outcome does the record of this test show for COc1cc(Nc2ncc(F)c(Nc3ccc4c(n3)N(COP(=O)(O)O)C(=O)C(C)(C)O4)n2)cc(OC)c1OC ?
Out: YES

In: What did the test return for Cn1c2cc(S(C)=O)sc2c2cnn(Cc3cccc(N)c3)c(=O)c21 (stereo not given) ?
Out: NO

In: Which outcome was entered for the molecule Nc1ccc(C(=O)c2cc3c(ccc4ccccc43)[nH]2)cc1 in this test?
Out: YES

In: Entry C#Cc1cccc(Nc2ncnc3cc(OC)c(OCCCCCCC(=O)NO)cc23)c1 : call = ?
Out: YES

In: Record lookup: outcome of this test for CCN1CCN(CC(=O)Nc2ccc(-c3cccc4c(=O)cc(N5CCOCC5)oc34)c3sc4ccccc4c23)CC1 ?
Out: YES

In: // param item: NCC(=O)Nc1ccc(-n2nc(C(F)(F)F)cc2-c2ccc3c(ccc4ccccc43)c2)cc1 ; yields the recorded call
Out: YES

In: Can you look up the reported call for COc1cc2c(Nc3ccc(NC(=O)c4ccccc4)cc3)ncnc2cc1OCCCN1CCOCC1 for me?
Out: YES

In: Assay result, entry O=C(C=Cc1cccc(S(=O)(=O)Nc2ccccc2)c1)NO — outcome?
Out: YES

In: How was COc1cc(C(=O)NS(=O)(=O)c2ccccc2C)ccc1Cc1cn(C)c2ccc(NC(=O)OC3CCCC3)cc12 classified in this test?
Out: NO

In: Just curious, what result did O=C(O)[C@H](Cc1c[nH]c2ccccc12)N1C(=O)c2ccccc2C1=O get here?
Out: NO

In: What classification did Cc1ccc(-c2ncn(-c3ccc(Nc4nccc(-c5cccc(N6CCOCC6)c5)n4)cc3)n2)cn1 end up with in this test?
Out: YES

In: What did the test return for CC=C1NC(=O)[C@H]2CSSCCC=C[C@H](CC(=O)N[C@H](C(C)C)C(=O)N2)OC(=O)[C@H](C(C)C)NC1=O ?
Out: YES

* * *

Provide the reported parasite growth, % of DMSO control of each item.
# MEASUREMENT PROTOCOL: qHTS profiling of the MIPE4 collection as inhibitors of Plasmodium falciparum (3D7) proliferation (AID 743344);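 note: scaled between DMSO vehicle wells and 0.29 µM artemisinin as full inhibition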
# MEASUREMENT CONDITIONS: P. falciparum 3D7 in erythrocytes, SYBR Green DNA fluorescence, 72 h; at 28.5 µM (top of the series) unless noted
Hi! Could you send only the number? It should be in %, unit omitted.

In: Tell me the measured parasite growth, % of DMSO control of CCCn1c(=O)c2[nH]c(-c3cnn(Cc4cccc(C(F)(F)F)c4)c3)nc2n(CC)c1=O , please.
Out: 62.2

In: Please look up its parasite growth, % of DMSO control: Cc1coc2c1C(=O)C(=O)c1c-2ccc2c1CCCC2(C)C
Out: 5.71

In: # get_value(readout='parasite growth, % of DMSO control', item= C=C1C(=CC=C2CCC[C@]3(C)[C@@H]([C@H](C)C=C[C@H](C)C(C)C)CC[C@@H]23)C[C@@H](O)C[C@@H]1O )
Out: 6.24

In: So what does the record say about parasite growth, % of DMSO control for CNC(=O)c1ccc(N2C(=S)N(c3cnc(C#N)c(C(F)(F)F)c3)C(=O)C23CCC3)cc1F ?
Out: 41

In: Recorded parasite growth, % of DMSO control for CC(=O)Nc1sc2c(c1-c1nc3ccccc3s1)CNC2 , please?
Out: 20.4

In: Which parasite growth, % of DMSO control is listed for COc1cc2c(Oc3ccc(-c4cnc(Nc5ccc(F)cc5)n(C)c4=O)cc3F)ccnc2cc1OCCCN1CCOCC1 ?
Out: 6.28

In: Given the molecule CC(C)(C)NC(=O)[C@H]1CN(Cc2cccnc2)CCN1C[C@@H](O)C[C@@H](Cc1ccccc1)C(=O)N[C@H]1c2ccccc2C[C@H]1O , what is its reported parasite growth, % of DMSO control?
Out: 19.6

In: Name the reported parasite growth, % of DMSO control value associated with the molecule Cc1[nH]nc2ccc(-c3cncc(OC[C@@H](N)Cc4ccccc4)c3)cc12
Out: 19.3

In: // returns reported parasite growth, % of DMSO control for input CC[C@@H]1C(=O)N(C)c2cnc(Nc3ccc(C(=O)NC4CCN(C)CC4)cc3OC)nc2N1C1CCCC1
Out: 4.91

In: # get_value(readout='parasite growth, % of DMSO control', item= Nc1nc(-c2nn(Cc3ccccc3F)c3ncccc23)nc(N)c1N1CCOCC1 )
Out: 28.3

In: Name the recorded parasite growth, % of DMSO control for O=C(NC1CCNCC1)c1[nH]ncc1NC(=O)c1c(Cl)cccc1Cl .
Out: 10.8

In: Name the reported parasite growth, % of DMSO control value associated with the molecule COc1ccc(C(=O)CC2(O)C(=O)Nc3c(Cl)ccc(Cl)c32)cc1 (stereo not drawn)
Out: 74.3

In: Query: parasite growth, % of DMSO control; subject: Nc1nccc(Oc2ccc(NC(=O)c3c[nH]cc(-c4ccc(F)cc4)c3=O)cc2F)c1Cl
Out: 4.72

In: Name the recorded parasite growth, % of DMSO control for Clc1cccc(-c2nnnn2Cc2cccnc2)c1Cl .
Out: 72.2

In: Recorded parasite growth, % of DMSO control of N#CCNC(=O)c1ccc(-c2ccnc(Nc3ccc(N4CCOCC4)cc3)n2)cc1 , please.
Out: 4.16

In: Which parasite growth, % of DMSO control is listed for CCC1=C[C@@H]2CN(C1)Cc1c([nH]c3ccccc13)[C@@](C(=O)OC)(c1cc3c(cc1OC)N(C)[C@@H]1[C@@](O)(C(=O)OC)[C@H](OC(C)=O)[C@]4(CC)C=CCN5CC[C@]31[C@@H]54)C2 ?
Out: 5.09

In: Value lookup for parasite growth, % of DMSO control; key = Cn1c2ccccc2c2c3c(c4c5ccccc5n(CCC#N)c4c21)CNC3=O
Out: 16

In: # input molecule: CN1CCN(c2ccc3nc(-c4c(N)c5c(F)cccc5[nH]c4=O)[nH]c3c2)CC1 ; wanted: its parasite growth, % of DMSO control
Out: 3.66

* * *

# MEASUREMENT PROTOCOL: qHTS of pediatric cancer cell lines to identify multiple opportunities for drug repurposing: Primary screen for TC32 cells (AID 1347089); note: nearly all actives have a fitted effect of over 60% in size; note: potency is the fitted concentration of half-maximal effect
# MEASUREMENT CONDITIONS: TC32 Ewing sarcoma viability, CellTiter-Glo luminescence, 48 h; series mostly up to 45.8 µM
Results filed as inconclusive are left out. Calls of active or inactive are those of the source. Calls follow the shape of the dose curve; as a rule, active = well fitted cell-killing curve with a large enough effect; inconclusive = small, poorly fitted or top-dose-only effect; inactive = flat fitted curve, though single readings scatter.
MEASURE NAME: Potency

In [3]: df
Out[3]:
                                   compound             result
0  Cc1[nH]c2ccccc2c1CCNCc1ccc(C=CC(=O)NO)cc1   1.65 µM (active)
1  CC(NCc1ccc2c(c1)nc(NC(=O)c1ccc(-c3cn[nH]c3)s1)n2CC(C)(C)O)C(C)(C)C (stereo not drawn)   2.62 µM (active)
2  Nc1ncnc2c1c(-c1cccc(OCc3ccccc3)c1)cn2C1CC(CN2CCCC2)C1 (stereo not drawn)   6.58 µM (active)
3  Cc1cc(Nc2nc(N[C@@H](C)c3ccc(F)cc3)c(C#N)cc2F)n[nH]1   2.62 µM (active)
4  CC1(C)CC(=O)c2c(C(F)(F)F)nn(-c3ccc(C(N)=O)c(NC4CCC(OC(=O)CN)CC4)c3)c2C1 (stereo not drawn)  0.739 µM (active)
5  Cc1cc(N2CCOCC2)cc2[nH]c(-c3c(NC[C@@H](O)c4cccc(Cl)c4)cc[nH]c3=O)nc12  0.739 µM (active)
6  C[C@]12CC[C@H](O)CC1=CCC1C2CC[C@]2(C)C(n3cnc4ccccc43)=CCC12 (stereo partly drawn)           inactive
7  C[C@@H](Oc1cc(-c2cnn(C3CCNCC3)c2)cnc1N)c1c(Cl)ccc(F)c1Cl   20.8 µM (active)
8  O=C(O)Cn1nnc(-c2cc(N3CCC(Oc4cc(F)ccc4Br)CC3)no2)n1           inactive
9  Cn1cc(-c2[nH]c3cc(NC(=O)[C@H](N)C4CCCCC4)cc4c3c2C=NNC4=O)cn1   2.62 µM (active)

In: Would you mind telling me what Potency value was observed for CCOc1ccccc1OCCNC(C)Cc1ccc(OC)c(S(N)(=O)=O)c1 (stereo not drawn) ?
Out: inactive

In: Sample Cc1cc(Nc2cc(N3CCN(C)CC3)nc(Sc3ccc(NC(=O)C4CC4)cc3)n2)n[nH]1 — what was its Potency?
Out: 0.93 µM (active)

In: What value of measured Potency is listed for COc1ccc(OC)c(-c2nnc3ccc(-c4ccc(OC)c(O[C@@H]5CCOC5)c4)nn23)c1 ?
Out: inactive

In: Entry Cc1cnc(-c2cnc(NCCNc3ccc(C#N)cn3)nc2-c2ccc(Cl)cc2Cl)[nH]1 : reported Potency = ?
Out: inactive

In: For the compound CC(C)(C)c1cc(NC(=O)Nc2ccc(-c3cn4c(n3)sc3cc(OCCN5CCOCC5)ccc34)cc2)no1 , what Potency is on record?
Out: inactive

In: # lookup: Potency of CC(=O)SC[C@@H](C)C(=O)N1CCC[C@H]1C(=O)N[C@@H](Cc1ccccc1)C(=O)O
Out: inactive

In: Potency lookup needed for COc1cc(Nc2ncc(F)c(Nc3ccc4c(n3)N(COP(=O)(O)O)C(=O)C(C)(C)O4)n2)cc(OC)c1OC , thanks.
Out: inactive

In: # lookup: Potency of Nc1nc(NCCNc2ncc(-n3ccnc3)c(-c3ccc(Cl)cc3Cl)n2)ccc1[N+](=O)[O-]
Out: inactive

In: Query (compound): COc1ccc(-c2cc3c(C)nc(N)nc3n(C3CCC(OCCO)CC3)c2=O)cn1 (stereo not drawn) ; field requested: Potency
Out: 0.186 µM (active)

In: Bench note: what Potency did C1=CCOCc2cc(ccc2OCCN2CCCC2)Nc2nccc(n2)-c2cccc(c2)OCC1 show?
Out: 14.7 µM (active)

In: Which Potency is listed for CCC(=C(c1ccccc1)c1ccc(OCCN(C)C)cc1)c1ccccc1 ?
Out: inactive

In: I have this compound here, CN1CC[C@@H](c2c(O)cc(O)c3c(=O)cc(-c4ccccc4Cl)oc23)[C@@H](O)C1 , and I need its recorded Potency.
Out: 0.466 µM (active)

In: Item CC(C)Nc1cc(C(F)(F)F)cc2nc(NC(=O)c3cccnc3)nn12 has what recorded Potency?
Out: inactive

In: Could you tell me which Potency is on file for Cc1cc(Nc2cc(NC(=O)c3c(Cl)cccc3Cl)ccn2)nc(N)n1 ?
Out: 0.93 µM (active)

In: # get_value(readout='Potency', item= OCc1ccc(-c2ccc(-c3ccc(CO)s3)o2)s1 )
Out: inactive

In: What measured Potency goes with CCn1cc(-c2ccnc3[nH]c(-c4cccc(CN(C)C)c4)cc23)c(-c2ccc(NC(=O)N(C)C)cc2)n1 ?
Out: 0.104 µM (active)

In: // returns reported Potency for input CN[C@H]1CCc2cc(OC)c(OC)c(OC)c2-c2ccc(OC)c(=O)cc21
Out: 0.037 µM (active)

In: Which Potency value is on record for C=CCn1c(=O)c2cnc(Nc3ccc(N4CCN(C)CC4)cc3)nc2n1-c1cccc(C(C)(C)O)n1 ?
Out: 2.62 µM (active)

In: Record request: Potency value, item COC(=O)C[C@](O)(CCCC(C)(C)O)C(=O)O[C@@H]1C(OC)=C[C@]23CCCN2CCc2cc4c(cc2[C@H]13)OCO4
Out: inactive

In: Potency lookup needed for O=C(NCCS(=O)(=O)c1ccc(C(F)(F)F)cn1)c1ccc(Cl)cc1 , thanks.
Out: inactive

In: Potency for O=C(C=Cc1cccc(S(=O)(=O)Nc2ccccc2)c1)NO ?
Out: 9.54 µM (active)

In: Any idea what Potency was measured for Cc1nc2ccc(CN(C)c3ccc(C(=O)N[C@@H](CCC(=O)O)C(=O)O)s3)cc2c(=O)[nH]1 ?
Out: 0.131 µM (active)
